src = patent US9732094B2

- target under test: Kv11.1 (hERG) (Homo sapiens (Human))
- Sequence (Q12809 whole entry): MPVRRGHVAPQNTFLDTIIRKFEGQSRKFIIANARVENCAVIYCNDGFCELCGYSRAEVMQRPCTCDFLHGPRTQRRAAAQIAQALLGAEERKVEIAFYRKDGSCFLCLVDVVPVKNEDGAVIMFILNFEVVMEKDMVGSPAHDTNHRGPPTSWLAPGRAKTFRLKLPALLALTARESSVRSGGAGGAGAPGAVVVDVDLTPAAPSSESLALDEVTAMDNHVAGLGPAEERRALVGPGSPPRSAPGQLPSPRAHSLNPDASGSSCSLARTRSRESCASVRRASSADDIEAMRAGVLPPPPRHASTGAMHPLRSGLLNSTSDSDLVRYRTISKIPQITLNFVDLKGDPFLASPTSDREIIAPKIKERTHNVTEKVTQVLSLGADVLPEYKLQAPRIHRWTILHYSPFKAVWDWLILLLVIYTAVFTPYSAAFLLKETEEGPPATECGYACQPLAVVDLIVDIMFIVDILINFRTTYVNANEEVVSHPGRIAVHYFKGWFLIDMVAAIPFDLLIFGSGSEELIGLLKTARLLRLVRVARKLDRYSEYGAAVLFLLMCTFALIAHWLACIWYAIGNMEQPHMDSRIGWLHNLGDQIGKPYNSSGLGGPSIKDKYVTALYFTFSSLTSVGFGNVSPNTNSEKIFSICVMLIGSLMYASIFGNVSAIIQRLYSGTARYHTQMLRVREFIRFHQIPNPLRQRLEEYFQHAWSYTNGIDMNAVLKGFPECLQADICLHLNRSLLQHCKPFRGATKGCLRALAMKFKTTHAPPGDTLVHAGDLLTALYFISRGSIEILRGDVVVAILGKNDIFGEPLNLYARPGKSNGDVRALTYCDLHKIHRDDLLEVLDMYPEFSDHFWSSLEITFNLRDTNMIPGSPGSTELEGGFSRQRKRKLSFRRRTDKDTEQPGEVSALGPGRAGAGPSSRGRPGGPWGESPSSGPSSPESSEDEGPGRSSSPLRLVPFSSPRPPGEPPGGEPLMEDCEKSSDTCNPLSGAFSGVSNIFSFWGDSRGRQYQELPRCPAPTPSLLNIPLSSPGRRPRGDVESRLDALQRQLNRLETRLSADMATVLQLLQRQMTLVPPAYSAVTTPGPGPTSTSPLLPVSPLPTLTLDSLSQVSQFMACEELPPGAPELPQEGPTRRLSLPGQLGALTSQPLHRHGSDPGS
- procedure details: Kv11.1 (hERG) ion channel activity (patch clamp assay), HEK293 cells transfected with hERG gene
- experimental setup: Ki [Kv1.11 hERG], patch clamp, HEK293 transfected with hERG gene
pKi: −log10 of the molar value.
experimental endpoint: pKi

// below: answered compounds
COc1nccnc1C(O)c1ccc(F)c(-c2ncnc3cc(N4CCOCC4)ccc23)c1 (centres unmarked) | 4.60 to 4.82
OC(c1ccc(Cl)nn1)c1cc(-c2ncnc3cc(N4CCOCC4)ccc23)c(F)cc1Cl (centres unmarked) | 4.60 to 4.82
OC(c1cc(-c2ncnc3cc(N4CCOCC4)ccc23)ccc1Cl)c1ncnc2ccsc12 (centres unmarked) | 4.82 to 5.00

Dear colleague, could you please provide pKi for the compounds listed below?
1. OC(c1ccc(OCC(F)(F)F)nn1)c1cc(-c2ncnc3cc(N4CCOCC4)ccc23)c(F)cc1Cl (centres unmarked)
2. OC(c1ccc(F)c(-c2ncnc3cc(N4CCOCC4)ccc23)c1)c1ccc(OC(F)F)nn1 (centres unmarked)
3. OC(c1ccc(F)c(-c2ncnc3cc(N4CCOCC4)sc23)c1)c1nccnc1Cl (centres unmarked)
4. COc1ccc(C(O)c2cc(-c3ncnc4cc(N5CCOCC5)ccc34)c(F)cc2F)nn1 (centres unmarked) [Example 131]
5. OC(c1ccc(F)c(-c2ncnc3cc(N4CCOCC4)ccc23)c1)c1nccnc1OC1COC1 (centres unmarked)
6. CC(C#N)Oc1ccc(C(O)c2cc(-c3ncnc4cc(N5CCOCC5)ccc34)c(F)cc2Cl)nn1 (single isomer, unassigned) [Example 102]
7. CSc1ccc(C(O)c2cc(-c3ncnc4cc(N5CCOCC5)ccc34)c(F)cc2Cl)nn1 (centres unmarked)

Result string:
1: 4.82 to 5.00; 2: 4.60 to 4.82; 3: 4.82 to 5.00; 4: 4.60 to 4.82; 5: 4.60 to 4.82; 6: 4.60 to 4.82; 7: 4.60 to 4.82

Dear colleague, could you please provide pKi for the compounds listed below?
1. Cc1cc(F)c(-c2ncnc3cc(N4CCOCC4)ccc23)cc1C(O)c1nccs1 (centres unmarked)
2. COc1nnc(C(O)c2cc(-c3ncnc4cc(N5CCOCC5)ccc34)c(F)cc2Cl)c2ccncc12 (centres unmarked)
3. CCOc1ccc(C(O)c2ccc(F)c(-c3ncnc4cc(N5CCOCC5)ccc34)c2)nn1 (centres unmarked)
4. OC(c1ccc(F)c(-c2ncnc3cc(N4CCOCC4)ccc23)c1)c1cncc(F)c1Cl (centres unmarked)
5. Cc1cnc(C)c(C(O)c2cc(-c3ncnc4cc(N5CCOCC5)ccc34)c(F)cc2F)n1 (centres unmarked)
6. COc1cncnc1C(O)c1ccc(F)c(-c2ncnc3cc(N4CCOCC4)ccc23)c1 (centres unmarked)
7. OCCNc1nccnc1C(O)c1ccc(F)c(-c2ncnc3cc(N4CCOCC4)ccc23)c1 (centres unmarked)
8. CC(C#N)Oc1ccc(C(O)c2cc(-c3ncnc4cc(N5CCOCC5)ccc34)c(F)cc2Cl)nn1 (centres unmarked) [Example 101]

Result string:
1. 4.60 to 4.82
2. 4.82 to 5.00
3. 4.82 to 5.00
4. 4.82 to 5.00
5. 4.60 to 4.82
6. 4.60 to 4.82
7. 4.60 to 4.82
8. 4.82 to 5.00

Dear colleague, could you please provide pKi for the compounds listed below?
1. C#Cc1nc(-c2cc(C(O)c3nccs3)ccc2F)c2ccc(N3CCOCC3)cc2n1 (centres unmarked)
2. OC(c1ccc(F)c(-c2ncnc3cc(N4CCOCC4)ccc23)c1)c1ncccc1Cl (centres unmarked)
3. OC(c1cc(-c2ncnc3cc(N4CCOCC4)ccc23)c(F)cc1Cl)c1nccnc1Cl (centres unmarked)

Result string:
1: 4.82 to 5.00; 2: 4.60 to 4.82; 3: 4.82 to 5.00

Dear colleague, could you please provide pKi for the compounds listed below?
1. OC(c1ccc(F)c(-c2ncnc3cc(N4CCOCC4)ccc23)c1)c1c(F)cncc1F (centres unmarked)
2. COc1ccnnc1C(O)c1ccc(F)c(-c2ncnc3cc(N4CCOCC4)ccc23)c1 (centres unmarked)
3. O[C@@H](c1ccc(F)c(-c2ncnc3cc(N4CCOCC4)ccc23)c1)c1nccnc1Cl
4. OC(c1ccn2nccc2n1)c1cc(-c2ncnc3cc(N4CCOCC4)ccc23)c(F)cc1Cl (centres unmarked)

Result string:
["4.60 to 4.82", "4.60 to 4.82", "4.60 to 4.82", "4.60 to 4.82"]
